Biological target: T1, FZD8 cysteine-rich domain (CRD), MYC-tagged and GPI-anchored on CHO cells (human, UniProt Q498S8 31-155 (rat entry), GPI anchor)
T1 construct: also called FZD8 CRD; CHO-myc-FZDGPI; not shown: MYC tag and GPI anchor signal
T1 sequence: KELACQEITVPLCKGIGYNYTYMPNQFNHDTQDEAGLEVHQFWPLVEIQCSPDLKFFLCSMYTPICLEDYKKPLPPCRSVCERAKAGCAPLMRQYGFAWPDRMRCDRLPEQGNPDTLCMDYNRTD
Experiment: flow cytometry, CHO-CRD cells;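 further: flow cytometry of Fab binding to CHO cells overexpressing a Frizzled CRD, with binding defined as median fluorescence over twice that of CHO cells lacking any Frizzled CRD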
// reported median fluorescence for each item listed
Attribute measured: median fluorescence

1) Fab-2922 (Fab, V domains shown, Fab; also called Fv-2922) VH: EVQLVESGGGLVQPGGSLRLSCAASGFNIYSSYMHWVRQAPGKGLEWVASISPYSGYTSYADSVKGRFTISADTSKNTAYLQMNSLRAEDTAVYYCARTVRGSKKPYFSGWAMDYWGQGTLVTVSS VL: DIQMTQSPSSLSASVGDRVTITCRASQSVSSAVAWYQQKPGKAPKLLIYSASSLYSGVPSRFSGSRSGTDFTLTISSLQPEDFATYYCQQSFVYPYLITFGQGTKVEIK: 9.14
2) Fab-2898 (Fab, V domains shown, Fab; also called Fv-2898) VH: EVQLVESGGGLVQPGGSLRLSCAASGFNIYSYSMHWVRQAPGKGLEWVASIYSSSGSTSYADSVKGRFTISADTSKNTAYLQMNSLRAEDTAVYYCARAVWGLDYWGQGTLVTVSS VL: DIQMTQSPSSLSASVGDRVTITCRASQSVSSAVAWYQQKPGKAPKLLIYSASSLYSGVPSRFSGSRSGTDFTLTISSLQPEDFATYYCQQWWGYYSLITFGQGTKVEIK: 12.7
3) Fab-2912 (Fab, V domains shown, Fab; also called Fv-2912) VH: EVQLVESGGGLVQPGGSLRLSCAASGFNISYSYIHWVRQAPGKGLEWVASISSSSGYTSYADSVKGRFTISADTSKNTAYLQMNSLRAEDTAVYYCARTVRGSKKPYFSGWAMDYWGQGTLVTVSS VL: DIQMTQSPSSLSASVGDRVTITCRASQSVSSAVAWYQQKPGKAPKLLIYSASSLYSGVPSRFSGSRSGTDFTLTISSLQPEDFATYYCQQFYFPYLITFGQGTKVEIK: 7.57
